# target_entity: angiotensin II receptor (Rattus norvegicus)
# Sequence (P25095 whole entry): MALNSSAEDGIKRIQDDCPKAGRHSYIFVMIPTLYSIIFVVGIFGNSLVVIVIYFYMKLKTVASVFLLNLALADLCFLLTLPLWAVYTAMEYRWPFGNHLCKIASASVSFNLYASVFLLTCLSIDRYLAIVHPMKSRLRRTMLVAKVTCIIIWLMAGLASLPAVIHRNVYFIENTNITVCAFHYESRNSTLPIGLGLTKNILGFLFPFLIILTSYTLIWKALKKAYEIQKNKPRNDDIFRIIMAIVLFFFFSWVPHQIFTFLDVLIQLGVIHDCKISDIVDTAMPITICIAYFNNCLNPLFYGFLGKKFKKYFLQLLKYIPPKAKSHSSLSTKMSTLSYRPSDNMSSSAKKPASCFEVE
# test_method_notes: Inhibition of binding of angiotensin II to rat smooth muscle cells (125I-Tyr4-angiotensin II)
# test_conditions: 125I-AII; rat aorta-derived smooth muscle cells; room temperature, one hour; read-out: IC50, inhibitory activity to the binding of angiotensin II to its receptor
measurement_label: IC50 (nM)
Output spec: scalar in nM, unitless text.

molecule: CCCCc1nc(Cl)c(C=O)n1Cc1ccc2nc(-c3ccccc3C(=O)O)ccc2c1
scale_unit: nM
obs_value: 50

// query // returns reported IC50 for input CCCCc1nc(Cl)c(CO)n1Cc1ccc2nc(-c3ccccc3-c3nnn[nH]3)ccc2c1 [Example 11]
// result 2.5

// query // returns reported IC50 for input CCc1nc2c(C)cc(C)nc2n1Cc1ccc2nc(-c3ccccc3-c3nnn[nH]3)cc(Cl)c2c1 [Example 21]
// result 7.7

// query // returns reported IC50 for input CCc1nc2c(C)cc(C)nc2n1Cc1ccc2nc(-c3ccccc3C(=O)O)ccc2c1
// result 6.4

// query // returns reported IC50 for input CCc1nc2c(C)cc(C)nc2n1Cc1ccc2nc(-c3ccccc3C(=O)OC)ccc2c1 [Example 12]
// result 440
